Target: human Edg-1 receptor (Homo sapiens)
Construct: expressed in transfected cells; membrane preparation
Sequence (P21453 whole entry): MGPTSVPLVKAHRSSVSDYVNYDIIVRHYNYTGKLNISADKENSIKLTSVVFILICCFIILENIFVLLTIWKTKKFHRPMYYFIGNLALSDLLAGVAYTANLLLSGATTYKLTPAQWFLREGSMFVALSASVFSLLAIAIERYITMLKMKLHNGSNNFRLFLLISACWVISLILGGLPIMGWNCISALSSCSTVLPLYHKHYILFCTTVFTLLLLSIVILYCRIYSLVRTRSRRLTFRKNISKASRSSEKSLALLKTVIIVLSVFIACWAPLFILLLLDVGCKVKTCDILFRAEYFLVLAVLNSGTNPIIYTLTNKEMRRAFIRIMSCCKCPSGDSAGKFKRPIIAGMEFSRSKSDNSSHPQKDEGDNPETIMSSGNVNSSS
Test: GTP-γ-S assay using human Edg-1 receptors (scintillation proximity assay, membrane preparation from CHO Flp-In cell line)
Format: biochemical
Conditions: example compound at 10 μM; relative to 10 μM S1P; GTP-γ-S SPA, human Edg-1 membranes
Would you kindly list % Activation (Edg-1 receptor activation in percent of the activation by 10 μM S1P) for each of these molecules?
Write down the numeric answer in % and omit the unit.

**Q:** Which measured % Activation (Edg-1 receptor activation in percent of the activation by 10 μM S1P) value corresponds to CCCOc1nc(Cc2ccc(Cl)cc2)nc2oc(-c3ccc(C(C)=O)s3)nc12 [Example 175] ?
**A:** 116

**Q:** # repeat for CCCOc1nc(Cc2ccc(Cl)cc2)nc2oc(-c3ccc(Cl)nc3)nc12 [Example 201]
**A:** 68

**Q:** Try the molecule CCCOc1nc(Cc2ccc(Cl)cc2)nc2oc(-c3cc(N)ccc3F)nc12 [Example 135]
**A:** 117

**Q:** Also need CCCOc1nc(Cc2ccc(Cl)cc2)nc2oc(-c3cc(C)c(OCC4CC4)c(C)c3)nc12 [Example 315] , thanks.
**A:** 79

**Q:** Proceed to CCOc1nc(CC2CCC2)nc2oc(-c3cccc(C)c3)nc12 [Example 163]
**A:** 118

**Q:** // next record CCCOc1nc(Cc2ccc(Cl)cc2)nc2oc(-c3cc(C)c(OCC(=O)N4CCOCC4)c(C)c3)nc12 [Example 306]
**A:** 81

**Q:** Consider next the molecule CCOc1nc(Cc2ccc(Cl)cc2)nc2oc(-c3cc(C)c(OCC(=O)N4CC(C(=O)O)C4)c(C)c3)nc12 [Example 228] in the same way.
**A:** 107

**Q:** Also CCCOc1nc(Cc2ccc(Cl)cc2)nc2oc(-c3ccco3)nc12 [Example 102] ?
**A:** 65
